# targetOrTestSystem: Tyrosine-protein kinase Lck (Homo sapiens)
# Sequence (P06239 whole entry): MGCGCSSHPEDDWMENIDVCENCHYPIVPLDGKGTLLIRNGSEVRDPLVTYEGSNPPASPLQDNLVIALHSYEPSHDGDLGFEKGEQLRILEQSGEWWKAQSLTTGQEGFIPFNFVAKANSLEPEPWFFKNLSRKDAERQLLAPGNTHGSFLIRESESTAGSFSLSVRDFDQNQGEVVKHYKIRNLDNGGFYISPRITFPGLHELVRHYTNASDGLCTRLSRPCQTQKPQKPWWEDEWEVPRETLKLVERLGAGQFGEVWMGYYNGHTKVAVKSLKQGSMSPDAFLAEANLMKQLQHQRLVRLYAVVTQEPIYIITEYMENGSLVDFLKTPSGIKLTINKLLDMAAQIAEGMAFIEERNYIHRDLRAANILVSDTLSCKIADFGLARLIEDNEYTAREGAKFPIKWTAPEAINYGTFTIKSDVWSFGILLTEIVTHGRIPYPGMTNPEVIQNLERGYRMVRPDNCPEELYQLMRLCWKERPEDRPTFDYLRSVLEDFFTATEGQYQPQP
pIC50: −log10 of the molar value.
endpointLabel: pIC50

molecularstring=Oc1cccc(Nc2nccc(-n3cnc4ccccc43)n2)c1 targetortestsystem="Tyrosine-protein kinase Lck (Homo sapiens)" endpointlabel=pIC50 result="< 5.00"

====

# protocolSummary: Aqueous solubility at pH 7.4
# Assay type: physicochemical
endpointLabel: solubility (µg/mL)

molecularstring=Cc1ccc(O)cc1Nc1cc(NCCCN(C)C)nc(-n2cnc3ccccc32)n1 op== number=55
molecularstring=CCN(CC)CCNc1cc(Nc2cc(O)ccc2C)nc(-n2cnc3ccccc32)n1 op== number=127
molecularstring=Cc1ccc(O)cc1Nc1cc(OCCN2CCOCC2)nc(-n2cnc3ccccc32)n1 op== number=3
molecularstring=Cc1ccc(O)cc1Nc1cc(CC2CCN(C)CC2)nc(-n2cnc3ccccc32)n1 op== number=40
molecularstring=Cc1ccc(O)cc1Nc1cc(NCCN2CCN(C)CC2)nc(-n2cnc3ccccc32)n1 op== number=54
molecularstring=COc1ccc(C)c(Nc2cc(OCCN3CCOCC3)nc(-n3cnc4ccccc43)n2)c1 op== number=27
molecularstring=Cc1ccc(O)cc1Nc1cc(OCCN2CCN(C)CC2)nc(-n2cnc3ccccc32)n1 op== number=70
molecularstring=Cc1ccc(O)cc1Nc1cc(N2CCN(C)CC2)nc(-n2cnc3ccccc32)n1 op=≤ number=0.1
